Target: human DGKα (Homo sapiens, UniProt P23743)
Construct: TVMV protease cleavage site (C); Hexa-His (C); made in house; host or cells: Sf9 insect cells (baculovirus, Bac-to-Bac)
Sequence (P23743 with tags, fused parts or gaps): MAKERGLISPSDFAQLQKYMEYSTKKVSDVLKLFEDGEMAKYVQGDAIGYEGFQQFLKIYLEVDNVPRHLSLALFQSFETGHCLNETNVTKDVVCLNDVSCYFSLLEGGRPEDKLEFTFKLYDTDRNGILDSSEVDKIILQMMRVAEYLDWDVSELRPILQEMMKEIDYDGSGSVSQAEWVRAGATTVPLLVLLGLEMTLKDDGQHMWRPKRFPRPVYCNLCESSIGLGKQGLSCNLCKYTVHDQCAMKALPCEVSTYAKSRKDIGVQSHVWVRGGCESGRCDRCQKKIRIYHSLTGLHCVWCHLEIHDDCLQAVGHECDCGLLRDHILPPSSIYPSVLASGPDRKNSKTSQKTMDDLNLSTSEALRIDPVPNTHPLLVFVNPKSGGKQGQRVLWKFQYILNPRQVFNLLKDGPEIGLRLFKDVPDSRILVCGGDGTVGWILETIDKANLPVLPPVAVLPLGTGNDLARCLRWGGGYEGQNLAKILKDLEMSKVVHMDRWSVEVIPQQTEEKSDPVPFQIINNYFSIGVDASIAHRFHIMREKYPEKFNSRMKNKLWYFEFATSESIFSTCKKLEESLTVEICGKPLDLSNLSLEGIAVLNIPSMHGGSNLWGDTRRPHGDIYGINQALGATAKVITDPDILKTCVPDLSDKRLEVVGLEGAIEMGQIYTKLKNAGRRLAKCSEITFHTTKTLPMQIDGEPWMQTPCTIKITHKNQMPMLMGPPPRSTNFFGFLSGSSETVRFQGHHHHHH
Assay: DGKα LIPGLO assay (extruded liposome substrate), in vitro DGK inhibition
Format: biochemical
Settings: DGKα liposome (LIPGLO) assay; read-out: DGKa LIPGLO IC50
endpoint: IC50 (nM)

compound	assay_target	IC50 / nM
C[C@@H]1CN(c2c(C#N)c(=O)n(C)c3ccc(C#N)nc23)CCN1Cc1ccccc1C(F)(F)F	human DGKα (Homo sapiens, UniProt P23743)	1300

P: Cc1cc(C(c2ccc(F)cc2)N2C[C@H](C)N(c3c(C#N)c(=O)n(C)c4ccc(C#N)nc34)C[C@H]2C)no1 (single isomer, unassigned) [Example 865]
Q: C[C@@H]1CN(c2c(C#N)c(=O)n(C)c3ccc(C#N)nc23)[C@@H](C)CN1C(c1ccc(F)cc1)c1cc(C(C)(C)C)on1 (single isomer, unassigned) [Example 866]
R: Cc1cc(C(c2ccc(F)cc2)N2C[C@H](C)N(c3c(C#N)c(=O)n(C)c4ccc(C#N)nc34)C[C@H]2C)no1 (single isomer, unassigned) [Example 864]
S: C[C@@H]1CN(c2c(C#N)c(=O)n(C)c3ccc(C#N)nc23)CCN1C(c1ccc(F)cc1)c1ccc(F)cc1F (some centres unmarked) [Example 946]
Please give the order of these compounds when sorted by IC50, largest value leading. Form entry: labels listed in requested order. P, S, Q, R
(P: 18000 nM, S: 590 nM, Q: 390 nM, R: 170 nM)
